# TESTED ON: Drosophila OR13a (Drosophila melanogaster)
# Construct: expressed in transfected cells
# Sequence (Q9VXL0 whole entry): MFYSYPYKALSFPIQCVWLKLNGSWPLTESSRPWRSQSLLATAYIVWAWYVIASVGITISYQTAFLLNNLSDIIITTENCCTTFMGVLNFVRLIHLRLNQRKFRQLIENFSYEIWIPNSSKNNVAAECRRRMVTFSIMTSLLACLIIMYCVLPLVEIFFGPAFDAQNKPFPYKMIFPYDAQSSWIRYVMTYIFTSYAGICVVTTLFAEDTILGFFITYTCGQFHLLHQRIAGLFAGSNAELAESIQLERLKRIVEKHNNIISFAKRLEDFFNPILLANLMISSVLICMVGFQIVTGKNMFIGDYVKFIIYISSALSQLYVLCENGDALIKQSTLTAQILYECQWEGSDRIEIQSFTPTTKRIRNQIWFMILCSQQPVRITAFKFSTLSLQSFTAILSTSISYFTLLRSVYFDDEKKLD
# Sequence (Q9VNB5 whole entry partner): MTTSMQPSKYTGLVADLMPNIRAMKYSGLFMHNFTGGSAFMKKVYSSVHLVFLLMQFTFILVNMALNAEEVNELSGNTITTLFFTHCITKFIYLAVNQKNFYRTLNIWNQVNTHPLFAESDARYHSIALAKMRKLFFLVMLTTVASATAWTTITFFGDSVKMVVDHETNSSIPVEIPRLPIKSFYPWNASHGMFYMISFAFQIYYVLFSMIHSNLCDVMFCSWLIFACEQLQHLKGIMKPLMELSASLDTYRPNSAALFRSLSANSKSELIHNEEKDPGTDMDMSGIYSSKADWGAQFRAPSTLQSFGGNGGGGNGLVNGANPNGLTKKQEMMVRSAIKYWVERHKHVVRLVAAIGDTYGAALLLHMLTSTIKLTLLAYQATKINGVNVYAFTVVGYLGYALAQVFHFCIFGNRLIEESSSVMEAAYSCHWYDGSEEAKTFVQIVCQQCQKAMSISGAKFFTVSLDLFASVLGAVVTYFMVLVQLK
# TEST DETAILS: Calcium ion fluorescence (GCaMP6) assay, OR13a stable HEK293 cell line
# Type: cell-based
# CONDITION NOTES: HEK293, read-out: OR13a Average response (VUAA1-normalized), 100 μM VOC; 50 μM VUAA1 = 1; responses not exceeding 0.05 considered 0
Attribute: activation at 100 µM
ASSAY METRIC: activation at 100 µM (%)

INSERT INTO assay_data (molecule, assay_metric, result) VALUES
  ('OCCc1ccccc1', 'activation at 100 µM', 3),
  ('CCOC(=O)CC [ethyl propionate]', 'activation at 100 µM', 0),
  ('CCCCCC(C)O (stereo not shown)', 'activation at 100 µM', 8),
  ('C=CC(O)C/C=C\CC (stereo not shown)', 'activation at 100 µM', 37),
  ('CC(=O)OCCC(C)C [isopentyl acetate]', 'activation at 100 µM', 0),
  ('CCCCCOC(C)=O [pentyl acetate]', 'activation at 100 µM', 4.32),
  ('CCCCC(C)=O', 'activation at 100 µM', 0),
  ('Cc1ccc(C)cc1', 'activation at 100 µM', 2.5),
  ('COc1cccc(OC)c1', 'activation at 100 µM', 3.71),
  ('C=CC(C)(O)CCC=C(C)C (stereo not shown)', 'activation at 100 µM', 0),
  ('O=Cc1ccccc1', 'activation at 100 µM', 5),
  ('C=C1CC/C=C(\C)CC[C@@H]2[C@@H]1CC2(C)C [(-)-trans-caryophyllene]', 'activation at 100 µM', 10),
  ('CC/C=C\CCOC(C)=O [z3-hexenyl acetate]', 'activation at 100 µM', 9),
  ('CC1=CCC2C(C1)C2(C)C (stereo not shown)', 'activation at 100 µM', 0),
  ('CCCCCC(O)CC (stereo not shown)', 'activation at 100 µM', 12),
  ('CCCC(=O)OCC [ethyl butyrate]', 'activation at 100 µM', 0),
  ('CCCCCCCCCCCCCC', 'activation at 100 µM', 0),
  ('Cc1ccc(C(C)C)cc1', 'activation at 100 µM', 0),
  ('CCCCCO', 'activation at 100 µM', 0),
  ('C=C1CCC2(C(C)C)CC12 (stereo not shown)', 'activation at 100 µM', 0),
  ('CCCC(O)CC (stereo not shown)', 'activation at 100 µM', 1.88),
  ('CCCCC(C)O (stereo not shown)', 'activation at 100 µM', 5),
  ('Cc1ccc(O)cc1', 'activation at 100 µM', 1.38),
  ('CCCCCCCCC=O', 'activation at 100 µM', 0),
  ('Cc1ccccc1C', 'activation at 100 µM', 1.83),
  ('CCOC(=O)c1ccccc1 [ethyl benzoate]', 'activation at 100 µM', 1.67),
  ('CCCCCCCCC(CO)CCCCCC (stereo not shown)', 'activation at 100 µM', 0),
  ('CCCCOC(=O)CC [butyl propanoate]', 'activation at 100 µM', 0);

Cited source for all entries: paper PMC10709440
